IC50 overview
System: HBV genome
TEST_NAME: siRNA IC50 (Table A)
Set-up: species or system Hepatitis B virus
[UNA] = unlocked nucleic acid; m = 2'-O-methyl; r = 2'-OH (RNA)
ATTRIBUTE_MEASURED: IC50 (pM)

>>> test_result("10m: siRNA duplex SEQ ID NO: 19 and 20 targeting the HBV genome (chain 1 GCCGAUCCAUACUGCGGAAUU; chain 2 UUCCGCAGUAUGGAUCGGCUU; chain 1: sugars from the 5' end [UNA]rrmrmrrrrrrmmrmmrr[UNA][UNA], backbone not given here; chain 2: sugars from the 5' end rrrrrrrmrrrrmrrrrmr[UNA][UNA], backbone not given here) [Compound 10m]")
340
>>> test_result("9m: siRNA duplex SEQ ID NO: 17 and 18 targeting the HBV genome (chain 1 AGGUAUGUUGCCCGUUUGUUU; chain 2 ACAAACGGGCAACAUACCUUU; chain 1: sugars from the 5' end [UNA]mrmrrrmrrrrrmrmrrr[UNA][UNA], backbone not given here; chain 2: sugars from the 5' end rrrrrrmrrrrrrrmrrrm[UNA][UNA], backbone not given here) [Compound 9m]")
130
>>> test_result("1m: siRNA duplex SEQ ID NO: 1 and 2 targeting the HBV genome (chain 1 AGGUAUGUUGCCCGUUUGUUU; chain 2 ACAAACGGGCAACAUACCUUU; chain 1: sugars from the 5' end [UNA]mrmrrmmrrrrrmrmrrr[UNA][UNA], backbone not given here; chain 2: sugars from the 5' end rrrrrrmrrrrrrrmrrrr[UNA][UNA], backbone not given here) [Compound 1m]")
1430

Data provenance: patent US20220265817A1
